These data points were gathered from patent US11065249B2.

Listed here: items and their measured Basic pKa.
# ASSAY DETAILS: Determination of pKa (capillary electrophoresis, Analiza)
# Format: physicochemical
# CONDITIONS: most basic pKa, mean
Where a name gives a salt, the structure may show the parent alone.
Number only, no unit.

Some compounds with recorded Basic pKa:
# COMPOUND, MEASURED ENDPOINT, VALUE OBSERVED
rows = [
    ("CCOc1cccnc1Oc1cncc(-c2ncc(C(=O)NC3(CO)CCOC3)cn2)c1 (single isomer, unassigned) [WO2018033832 Ex. 6b]", "Basic pKa", 2.4),
    ("CCOc1cccnc1Oc1cncc(-c2ncc(C(=O)N[C@@H]3CNCC(F)(F)C3)cn2)c1 (single isomer, unassigned) [Example 19]", "Basic pKa", 5.2),
    ("CCOc1cccnc1Oc1cncc(-c2ncc(C(=O)N[C@@H]3CNCC[C@@H]3F)cn2)c1 [Example 3, bis(trifluoroacetate) salt]", "Basic pKa", 8.1),
    ("CCOc1cccnc1Oc1cncc(-c2ncc(C(=O)NC3CCC(C(F)(F)F)NC3)cn2)c1 (single isomer, unassigned; ent-1) [Example 10]", "Basic pKa", 4.7),
    ("CCOc1cc(F)cnc1Oc1cncc(-c2ncc(C(=O)N[C@@H]3CNCC[C@@H]3F)cn2)c1 [Example 1, bis(trifluoroacetate) salt]", "Basic pKa", 7.7),
]

Looking for the measured Basic pKa of CCOc1cccnc1Oc1cncc(-c2ncc(C(=O)N[C@H]3CCOC3)cn2)c1 [WO2018033832 Ex. 1] , can you help? 2.4

Quick one: CCOc1cccnc1Oc1cncc(-c2ncc(C(=O)N[C@@H]3CCOC3)cn2)c1 [WO2018033832 Ex. 2] 2.5

Next up: CCOc1cccnc1Oc1cncc(-c2ncc(C(=O)NC3(CO)CCOC3)cn2)c1 (single isomer, unassigned) [WO2018033832 Ex. 6a] 2.3

----------
In what follows, each item is paired with its pIC50 for human DGAT2 (hDGAT2) (Homo sapiens (Human)).
Structures can show the parent of a compound that is named as a salt.
Keep it numeric: pIC50 is minus log10 of the concentration in mol/L.

Field: example entries. Status: answers known.
# MOLECULE, SYSTEM NAME, pIC50
data = [
    ("CCOc1cccnc1Oc1cncc(-c2ncc(C(=O)N[C@H]3CNCCC3(F)F)cn2)c1 (single isomer, unassigned) [Example 16, trifluoroacetate salt]", "human DGAT2 (hDGAT2) (Homo sapiens (Human))", 6.32),
    ("CCOc1cc(F)cnc1Oc1cncc(-c2ncc(C(=O)N[C@@H]3CNCC[C@@H]3F)cn2)c1 [Example 1, bis(trifluoroacetate) salt]", "human DGAT2 (hDGAT2) (Homo sapiens (Human))", 8.24),
    ("CCOc1cccnc1Oc1cncc(-c2ncc(C(=O)N[C@@H]3CCOC3)cn2)c1", "human DGAT2 (hDGAT2) (Homo sapiens (Human))", 6.70),
    ("CCOc1cccnc1Oc1cncc(-c2ncc(C(=O)N[C@@H]3CNCC[C@H]3C)cn2)c1 (racemic) [Example 24, trifluoroacetate salt]", "human DGAT2 (hDGAT2) (Homo sapiens (Human))", 4.80),
    ("CCOc1cccnc1Oc1cncc(-c2ncc(C(=O)NC3CCC(C(F)(F)F)NC3)cn2)c1 (single isomer, unassigned; ent-2)", "human DGAT2 (hDGAT2) (Homo sapiens (Human))", 8.36),
]

Suppose we examine the molecule CCOc1cccnc1Oc1cncc(-c2ncc(C(=O)N[C@H]3CCOC3)cn2)c1 ; what pIC50 value has been reported? 7.77

Also CCOc1cccnc1Oc1cncc(-c2ncc(C(=O)N[C@H]3CNC[C@@H](F)C3)cn2)c1 (racemic) [Example 25, trifluoroacetate salt] , if possible. 6.70

Now the molecule CCOc1cccnc1Oc1cncc(-c2ncc(C(=O)N[C@H]3CC[C@H](C(F)(F)F)NC3)cn2)c1 (racemic) 7.72

Follow-up item: CCOc1cccnc1Oc1cncc(-c2ncc(C(=O)N[C@@H]3CNCC(F)(F)C3)cn2)c1 (single isomer, unassigned) 6.62

Please do the same for CCOc1cccnc1Oc1cncc(-c2ncc(C(=O)N[C@H]3CNCC[C@H]3C)cn2)c1 (racemic) [Example 20, trifluoroacetate salt] as well. 5.68
